Where do the numbers come from? From patent US20240284907A1.

test system: Seeds of Lettuce R. (Super-Jericho); experiment: Filter paper bioassay with lettuce seeds: germination and early plant development, Minimal Effective Concentration (MEC); format: in vivo; conditions: lettuce seeds on filter paper, 0 to 1 mmol/l, visually assessed after 6 days
METRIC: Score (activity score of Minimal Effective Concentration, MEC)

Answered cases to consult:
- COMPOUND: "NC(N)=NCCc1cc(Cl)sc1Cl"
  TGT: "Seeds of Lettuce R. (Super-Jericho)"
  MEASURED: "Strong (0.01 mM)"
- COMPOUND: "O=C(O)/C=C/c1ccc(Cl)nc1Cl"
  TGT: "Seeds of Lettuce R. (Super-Jericho)"
  MEASURED: "Moderate (0.1 mM)"
- COMPOUND: "N=C(N)NCc1cccc(Br)n1 [compound 6636, N-[(6-bromopyridin-2-yl)methyl]guanidine]"
  TGT: "Seeds of Lettuce R. (Super-Jericho)"
  MEASURED: "Moderate (0.1 mM)"
- COMPOUND: "O=C(O)/C=C/c1ccnc(Br)c1[N+](=O)[O-]"
  TGT: "Seeds of Lettuce R. (Super-Jericho)"
  MEASURED: "Moderate (0.1 mM)"
- COMPOUND: "CS(=O)(=O)NCCNCCc1cc(Cl)sc1Cl"
  TGT: "Seeds of Lettuce R. (Super-Jericho)"
  MEASURED: "Strong (0.01 mM)"
- COMPOUND: "O=C([O-])Cc1cnsn1.[Li+]"
  TGT: "Seeds of Lettuce R. (Super-Jericho)"
  MEASURED: "Moderate (0.1 mM)"
- COMPOUND: "O=C(O)c1cnc2sc(Cl)nc2c1"
  TGT: "Seeds of Lettuce R. (Super-Jericho)"
  MEASURED: "Moderate (0.1 mM)"
- COMPOUND: "O=C(O)C(=O)c1c(Cl)sc(Cl)c1Cl"
  TGT: "Seeds of Lettuce R. (Super-Jericho)"
  MEASURED: "Strong (0.01 mM)"
- COMPOUND: "O=C([O-])C(F)(F)c1csc(Cl)n1.[Na+]"
  TGT: "Seeds of Lettuce R. (Super-Jericho)"
  MEASURED: "very strong"
- COMPOUND: "O=C(O)C(F)c1nc(F)c(F)cc1F (stereo not shown)"
  TGT: "Seeds of Lettuce R. (Super-Jericho)"
  MEASURED: "Moderate (0.1 mM)"

Please state Score (activity score of Minimal Effective Concentration, MEC) for every compound in the list that follows.
1. O=C(O)CCc1cc(Cl)sc1Cl
2. O=C(O)C(F)(F)c1cscc1C(F)(F)F
3. O=C(O)C(F)(F)c1csc([N+](=O)[O-])n1
4. NCCCCc1cc(Cl)sc1Cl
5. O=C(O)Cc1cc(Br)nc(Br)c1
6. O=C(O)/C=C/c1cccnc1Br
7. O=C(OCc1ccccc1)C(F)(F)c1csc(Cl)n1

Data returned:
Moderate (0.1 mM)
Strong (0.01 mM)
Moderate (0.1 mM)
Moderate (0.1 mM)
Moderate (0.1 mM)
Strong (0.01 mM)
very strong

Please state Score (activity score of Minimal Effective Concentration, MEC) for every compound in the list that follows.
1. O=C(O)C(F)(F)c1csc(C(F)(F)F)n1
2. CCOC(=O)Cc1nc(Br)sc1C
3. O=C(O)/C=C/c1cccnc1Cl
4. O=C(O)C(F)(F)c1csc(-c2ccc(C(F)(F)F)cc2F)n1
5. N#Cc1cscc1C(F)(F)C(=O)O
6. Cl.NC(Cc1n[nH]c2ccccc12)C(=O)O (stereo not shown)

Data returned:
1: very strong; 2: Moderate (0.1 mM); 3: Moderate (0.1 mM); 4: Moderate (0.1 mM); 5: Strong (0.01 mM); 6: Moderate (0.1 mM)

Please state Score (activity score of Minimal Effective Concentration, MEC) for every compound in the list that follows.
1. CCOC(=O)Cc1csc(Cl)c1 [compound 5796, ethyl(5-chlorothiophen-3-yl)acetate]
2. O=C(Cc1csc(Cl)n1)OCc1ccccc1

Data returned:
1. Moderate (0.1 mM)
2. Strong (0.01 mM)
